test system: MS2 coat protein; test: apparent KD of MS2 coat protein; higher = weaker reporter binding; details: Eterna round: R107; input ligand: theophylline 20 uM

chain.sequence: UAGCGAUAAUCUGAUACCAGACGUGUGCUCUCCUCAGACAUGAGGAUCACCCAUGUAUGCGUCCCUUGGCAGCAGAGUGAGGAGA [Theo B Ex t5]
unit.of.measurement: nM
apparent KD of MS2 coat protein: 26.8
//
chain.sequence: AGGACGGUCGGAAGGAGCGGUACAUGAGGAUCACCCAUGUAUUCCUGGGCAUCCGUAGUGUGCCAGGUAGGUCGCCGAUUGCGGG [XArg-B7]
unit.of.measurement: nM
apparent KD of MS2 coat protein: 109
//
chain.sequence: UUGGGUUUGUGAAGGAGCGGGAAAGUUUUAUAGUGGAUCCUAACAUGAGGAUCACCCAUGUCCCAGGUAGGUCGCGCGGGUUUGG [12.R]
unit.of.measurement: nM
apparent KD of MS2 coat protein: 182

These data points were gathered from the supplement of paper PMC9170038.
